assayTarget: CRTH2 (KB8 cells) (Homo sapiens, UniProt Q9Y5Y4)
Construct: host or cells: KB8 cells (human CRTH2 expression cell)
Sequence (Q9Y5Y4 1-395): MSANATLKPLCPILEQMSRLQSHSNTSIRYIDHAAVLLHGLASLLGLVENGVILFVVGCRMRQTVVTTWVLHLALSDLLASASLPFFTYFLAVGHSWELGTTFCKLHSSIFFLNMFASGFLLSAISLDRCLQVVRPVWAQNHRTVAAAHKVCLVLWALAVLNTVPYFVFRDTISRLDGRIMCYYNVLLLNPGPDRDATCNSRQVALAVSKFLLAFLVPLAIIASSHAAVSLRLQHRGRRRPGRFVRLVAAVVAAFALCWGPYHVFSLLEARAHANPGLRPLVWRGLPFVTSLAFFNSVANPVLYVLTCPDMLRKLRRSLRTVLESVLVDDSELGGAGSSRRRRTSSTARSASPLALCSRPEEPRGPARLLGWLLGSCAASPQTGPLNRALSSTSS
experimentNotes: CRTH2 antagonist test (PGD2-induced intracellular calcium ion concentration increase in KB8 cells)
Type: cell-based
testContext: PGD2 final concentration 100 nM, Fluo-4-AM fluorescence, read-out: antagonist activity (IC50 value, inhibition of calcium ion concentration increase)
In this section, each of the molecules is paired with its reported IC50.

Sample answers from the record:
O=C(O)Cc1cnc(Cc2ccc(C(=O)NCCc3ccc(Cl)c(F)c3)cc2)c2ccccc12; < 50 nM
O=C(O)Cc1cnc(C(=O)c2ccc(NC(=O)c3ccc(C4CCCCC4)cc3)cc2)c2ccccc12; < 50 nM
O=C(O)Cc1cnc(C(=O)c2ccc(NC(=O)c3ccc4ccccc4n3)cc2)c2ccccc12; < 50 nM
O=C(O)Cc1cnc(Cc2ccc(C(=O)NCCOc3ccc(Cl)cc3)cc2)c2ccccc12; 50 to 500 nM
O=C(O)Cc1cnc(C(=O)c2ccc(NC(=O)c3ccccc3Cl)cc2)c2ccccc12; ≥ 1000 nM
O=C(O)Cc1cnc(Cc2ccc(C(=O)NCCc3cccnc3)cc2)c2ccccc12; ≥ 1000 nM

Q: Return the recorded IC50 value; entry: O=C(O)Cc1cnc(Cc2ccc(C(=O)NCCC3CCOCC3)cc2)c2ccccc12
Ans: ≥ 1000 nM

Q: Return the recorded IC50 value; entry: O=C(O)Cc1cnc(C(=O)c2ccc(OCCOc3ccc(Cl)cc3)cc2)c2ccccc12
Ans: 50 to 500 nM

* * *

assayTarget: CRTH2 (KB8 cells) (Homo sapiens)
Construct: host or cells: KB8 cells (human CRTH2 expression cell)
Sequence (Q9Y5Y4 1-395): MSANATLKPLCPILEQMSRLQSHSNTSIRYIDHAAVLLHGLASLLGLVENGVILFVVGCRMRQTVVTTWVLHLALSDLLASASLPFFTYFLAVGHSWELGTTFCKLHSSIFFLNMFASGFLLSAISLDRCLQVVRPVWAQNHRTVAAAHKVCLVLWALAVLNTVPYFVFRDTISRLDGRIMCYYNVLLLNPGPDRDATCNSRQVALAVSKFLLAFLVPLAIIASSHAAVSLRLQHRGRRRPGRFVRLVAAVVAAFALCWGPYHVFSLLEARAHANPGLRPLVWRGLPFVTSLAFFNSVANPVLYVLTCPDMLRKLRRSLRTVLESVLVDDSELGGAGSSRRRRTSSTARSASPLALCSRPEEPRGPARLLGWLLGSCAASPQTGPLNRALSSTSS
experimentNotes: CRTH2 antagonist test (PGD2-induced intracellular calcium ion concentration increase in KB8 cells)
Type: cell-based
testContext: PGD2 final concentration 100 nM, Fluo-4-AM fluorescence, read-out: antagonist activity (IC50 value, inhibition of calcium ion concentration increase)
quantityName: IC50

Sample answers from the record:
O=C(O)Cc1cnc(C(=O)c2ccc(NC(=O)NCc3ccc(Cl)c(Cl)c3)cc2)c2ccccc12; 50 to 500 nM
Cc1ccc(Cl)c(C(=O)Nc2ccc(C(=O)c3ncc(CC(=O)O)c4ccccc34)cc2)c1F; ≥ 1000 nM
O=C(O)Cc1cnc(Cc2ccc(C(=O)NCCc3nc4ccccc4s3)cc2)c2ccccc12; < 50 nM
O=C(O)Cc1cnc(Cc2ccc(C(=O)NCCc3ccc(C(F)(F)F)cc3)cc2)c2ccccc12; < 50 nM
O=C(O)Cc1cnc(Cc2ccc(C(=O)NCCc3cc(F)cc(F)c3)cc2)c2ccccc12; 50 to 500 nM
O=C(O)Cc1cnc(Cc2ccc(C(=O)NCCc3cccc(Br)c3)cc2)c2ccccc12; 50 to 500 nM
COc1ccc(CCNC(=O)c2ccc(C(=O)c3ncc(CC(=O)O)c4ccccc34)cc2)cc1; < 50 nM
O=C(O)Cc1cnc(Cc2ccc(C(=O)NCCC3=CCCCC3)cc2)c2ccccc12; 50 to 500 nM
O=C(O)Cc1cnc(C(=O)c2ccc(NC(=O)c3cnc4ccccc4n3)cc2)c2ccccc12; 50 to 500 nM
NS(=O)(=O)c1ccc(C(=O)Nc2ccc(C(=O)c3ncc(CC(=O)O)c4ccccc34)cc2)cc1; 50 to 500 nM

Q: Return the recorded IC50 value; entry: CN(C)c1ccc(CCNC(=O)c2ccc(Cc3ncc(CC(=O)O)c4ccccc34)cc2)cc1
Ans: 50 to 500 nM

Q: Return the recorded IC50 value; entry: COc1ccc(CCNC(=O)c2ccc(Cc3ncc(CC(=O)O)c4ccccc34)cc2)cc1Cl [Example 157]
Ans: < 50 nM

Q: Return the recorded IC50 value; entry: O=C(O)Cc1cnc(C(=O)c2ccc(NC(=O)c3cc4ccccc4o3)cc2)c2ccccc12
Ans: < 50 nM

Q: Return the recorded IC50 value; entry: O=C(O)Cc1cnc(C(=O)c2ccc(NC(=O)c3cn4ccccc4n3)cc2)c2ccccc12
Ans: 50 to 500 nM

Q: Return the recorded IC50 value; entry: O=C(O)Cc1cnc(Cc2ccc(C(=O)NCCc3cc4ccccc4o3)cc2)c2ccccc12
Ans: < 50 nM
